// provenance: patent US20260217708A1

Target: system Xc^− (Homo sapiens, UniProt Q9UPY5)
Sequence (Q9UPY5 whole entry): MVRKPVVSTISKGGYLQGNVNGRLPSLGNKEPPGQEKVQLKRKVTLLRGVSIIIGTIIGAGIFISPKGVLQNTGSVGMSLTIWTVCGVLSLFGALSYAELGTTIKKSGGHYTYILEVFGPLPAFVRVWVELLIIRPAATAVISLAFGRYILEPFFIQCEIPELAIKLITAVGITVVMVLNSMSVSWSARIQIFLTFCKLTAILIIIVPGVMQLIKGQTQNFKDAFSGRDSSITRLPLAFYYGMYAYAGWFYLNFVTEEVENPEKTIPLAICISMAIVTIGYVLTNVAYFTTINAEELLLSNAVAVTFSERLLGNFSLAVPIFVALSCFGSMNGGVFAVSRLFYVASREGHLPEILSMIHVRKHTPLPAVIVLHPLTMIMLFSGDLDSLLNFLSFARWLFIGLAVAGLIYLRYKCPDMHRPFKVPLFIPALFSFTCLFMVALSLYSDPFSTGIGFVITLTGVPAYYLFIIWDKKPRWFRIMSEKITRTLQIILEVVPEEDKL
Sequence (P08195 102-630 partner): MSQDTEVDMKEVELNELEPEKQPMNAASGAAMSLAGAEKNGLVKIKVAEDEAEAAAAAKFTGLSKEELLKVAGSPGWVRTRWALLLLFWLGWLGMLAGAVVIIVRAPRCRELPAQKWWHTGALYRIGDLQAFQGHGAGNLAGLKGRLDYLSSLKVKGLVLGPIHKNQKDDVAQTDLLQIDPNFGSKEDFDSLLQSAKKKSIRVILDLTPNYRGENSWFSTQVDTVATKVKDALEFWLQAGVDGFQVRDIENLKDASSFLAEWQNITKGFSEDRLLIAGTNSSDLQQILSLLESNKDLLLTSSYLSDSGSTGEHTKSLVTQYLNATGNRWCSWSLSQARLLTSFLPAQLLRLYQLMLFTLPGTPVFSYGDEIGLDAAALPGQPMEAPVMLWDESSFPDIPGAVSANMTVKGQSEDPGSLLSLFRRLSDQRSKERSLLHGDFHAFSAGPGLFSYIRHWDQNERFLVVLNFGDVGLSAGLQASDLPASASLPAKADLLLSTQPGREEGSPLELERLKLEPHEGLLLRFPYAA
Test: [^14C]L-Cystine uptake assay
Type: cell-based
Parameters: endogenous in cells; host or cells: H4 cells
Conditions: H4 cells, sodium-free HEPES buffer, 0.5 μM L-[14C]Cystine and 4.5 μM L-Cystine, 1 hour at 37° C.; read-out: pIC50 [^14C] L-Cystine uptake assay (converted)
Description: The effect of compounds of Formula (I) on the system Xc^− functionality was examined in two independent cell assays: (i) measurement of cystine-induced glutamate release; and (ii) measurement of [^14C]L-Cystine uptake. […] In this assay, the medium is devoid of sodium to prevent the transport of glutamate by sodium-dependent excitatory amino acid transporters (EAATs). […] After 1 hour at 37° C., plates were counted in a MicroBeta^2 microplate counter (PerkinElmer).
ENDPOINT_LABEL: IC50

Look over these answered cases.
COc1nc(C)cc2c1-c1cncnc1C(C)C(=O)N2CC(=O)Nc1ccc(C(F)(F)F)cc1 (stereo not drawn) [#157] ... < 15.8 nM
CC1C(=O)N(CC(=O)Nc2ccc(C(F)F)cc2)c2cc(C3CC3)nc(Cl)c2-c2cccnc21 (stereo not drawn) [#347] ... 15.8 to 39.8 nM
Cc1cc2c(n(C)c1=O)-c1cccnc1C(C)C(=O)N2CC(=O)Nc1ccc(C(F)(F)F)cc1 (stereo not drawn) [#119] ... 15.8 to 39.8 nM
Cc1cc2c(c(F)n1)-c1cccnc1[C@@H](C)C(=O)N2CC(=O)Nc1ccc2c(Cl)nccc2c1 (single isomer, unassigned) [#240] ... 39.8 to 100 nM
CN1CC(c2cc3c(c(Cl)n2)-c2cccnc2CC(=O)N3CC(=O)Nc2ccc(C(F)(F)F)cc2)C1 [#170] ... 39.8 to 100 nM

Parameter requested: IC50. Apply to each item below.
1. Cc1cc2c(c(F)n1)-c1cnccc1C(C)C(=O)N2CC(=O)Nc1ccc(C(F)(F)F)cc1 (stereo not drawn) [#180]
2. COc1nccc2c1-c1cccnc1C(C)C(=O)N2CC(=O)Nc1ccc(C(F)F)cc1 (single isomer, unassigned) [#298]
3. O=C(CN1C(=O)Cc2cc(F)ccc2-c2c1cc(N1CC(F)(F)C1)nc2F)Nc1ccc(C(F)F)cc1 [#296]
4. CC1C(=O)N(CC(=O)Nc2ccc(C(F)F)cc2)c2cc(OC3CN(C)C3)nc(F)c2-c2cccnc21 (stereo not drawn) [#378]
5. CC1C(=O)N(CC(=O)Nc2ccc(Cl)c(F)c2)c2cc(C#N)ccc2-c2cc(F)cnc21 (single isomer, unassigned) [#307]
6. Cc1cc2c(cn1)-c1cnccc1CC(=O)N2CC(=O)Nc1ccc(C(F)(F)F)cc1 [#6]
7. CC1C(=O)N(CC(=O)Nc2ccc(Cl)c(F)c2)c2cc(CN3CC(C)(O)C3)ccc2-c2cccnc21 (stereo not drawn) [#343]
8. Cc1cc2c(c(C)n1)-c1ccc(F)cc1CC(=O)N2CC(=O)Nc1ccc(C(F)(F)F)cc1 [#65]

// result
1: 15.8 to 39.8 nM; 2: < 15.8 nM; 3: 15.8 to 39.8 nM; 4: 39.8 to 100 nM; 5: 15.8 to 39.8 nM; 6: 100 to 501 nM; 7: 100 to 501 nM; 8: < 15.8 nM
